Ref: ChEMBL document CHEMBL2380243

# Target System: UniProt P13807
# Sequence (P13807 whole entry): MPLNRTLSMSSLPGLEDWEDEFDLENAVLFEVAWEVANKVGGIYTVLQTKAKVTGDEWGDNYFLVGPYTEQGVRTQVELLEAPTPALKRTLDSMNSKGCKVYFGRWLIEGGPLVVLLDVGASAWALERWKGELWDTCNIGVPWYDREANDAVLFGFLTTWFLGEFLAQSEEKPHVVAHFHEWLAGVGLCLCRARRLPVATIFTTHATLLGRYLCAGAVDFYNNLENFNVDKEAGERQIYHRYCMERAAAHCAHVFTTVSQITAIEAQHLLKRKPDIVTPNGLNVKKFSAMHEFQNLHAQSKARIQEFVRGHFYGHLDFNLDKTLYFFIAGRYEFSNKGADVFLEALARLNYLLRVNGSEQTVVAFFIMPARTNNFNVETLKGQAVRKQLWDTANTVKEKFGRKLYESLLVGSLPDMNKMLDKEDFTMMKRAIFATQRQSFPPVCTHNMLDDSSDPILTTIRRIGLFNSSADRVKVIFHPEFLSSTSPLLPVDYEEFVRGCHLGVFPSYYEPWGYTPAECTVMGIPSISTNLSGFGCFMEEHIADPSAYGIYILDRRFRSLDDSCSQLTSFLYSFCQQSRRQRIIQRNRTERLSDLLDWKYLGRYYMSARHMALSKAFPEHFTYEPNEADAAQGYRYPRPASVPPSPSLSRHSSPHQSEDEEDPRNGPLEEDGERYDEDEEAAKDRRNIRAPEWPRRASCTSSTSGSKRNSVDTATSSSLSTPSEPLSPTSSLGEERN
# Assay Protocol: Activation of human recombinant muscle GYS1 expressed in insect sf9 cells using glycogen and UDP-glucose as substrates by spectrophotometry
Measurement Type: pEC50
The read-out pEC50 is expressed as -log10 of concentration in moles per litre.

- COc1cc(F)c(F)cc1-c1ccc(OCc2cccc3c(=O)n(C)[nH]c23)cc1: 6.49
- O=c1c2cccc(COc3ccc(-c4cc(F)c(F)cc4Cl)cc3)c2[nH]n1-c1cccnc1: 5.73
- Cc1cc(F)c(F)cc1-c1ccc(OCc2cccc3c(=O)n(CC(=O)O)[nH]c23)cc1: 6.38

Request: I'd like to know its pEC50. The molecule in question is O=c1o[nH]c2c(COc3ccc(-c4cc(F)c(F)cc4F)cc3)cccc12
Result: 6.00

Request: I'd like to know its pEC50. The molecule in question is COc1cc(F)c(F)cc1-c1ccc(OCc2cccc3c(=O)n(CC(=O)O)[nH]c23)cc1
Result: 6.70

Request: I'd like to know its pEC50. The molecule in question is COc1cc(F)c(F)cc1-c1ccc(OCc2cccc3c(=O)n(C[C@@H](O)CO)[nH]c23)cc1
Result: 6.57

Request: I'd like to know its pEC50. The molecule in question is O=c1c2cccc(COc3ccc(-c4cc(F)c(F)cc4F)cc3)c2[nH]n1C[C@@H](O)CO
Result: 6.17

Request: I'd like to know its pEC50. The molecule in question is O=c1c2cccc(COc3ccc(-c4cc(F)c(F)cc4Cl)cc3)c2[nH]n1C[C@@H](O)CO
Result: 6.59

Request: I'd like to know its pEC50. The molecule in question is COc1cc(F)c(F)cc1-c1ccc(OCc2cccc(C(=O)N3CCC[C@H]3C(=O)O)c2)cc1
Result: 6.85

Request: I'd like to know its pEC50. The molecule in question is COCCn1[nH]c2c(COc3ccc(-c4cc(F)c(F)cc4F)cc3)cccc2c1=O
Result: 6.10

Request: I'd like to know its pEC50. The molecule in question is Cc1cc(F)c(F)cc1-c1ccc(OCc2cccc3c(=O)n(C[C@H](O)CO)[nH]c23)cc1
Result: 6.47

Request: I'd like to know its pEC50. The molecule in question is Cc1cc(F)c(F)cc1-c1ccc(OCc2cccc3c(=O)n(C)[nH]c23)cc1
Result: 6.62

Request: I'd like to know its pEC50. The molecule in question is COc1cc(F)c(F)cc1-c1ccc(OCc2cccc(C(=O)N(C)CC(O)CO)c2)cc1 (centres undefined)
Result: 4.99

Request: I'd like to know its pEC50. The molecule in question is O=c1c2cccc(COc3ccc(-c4cc(F)c(F)cc4F)cc3)c2[nH]n1-c1cccnc1
Result: 5.40

----------
# Assay Protocol: AUC in C57 mouse at 10 mg/kg, po
# Type: ADME, organism-based
# Set-up: dose 10 mg/kg, route oral
# Assay Context: plasma
Each record here notes measured AUC.
// units = ng·h/mL; emit number, no label

* O=c1c2cccc(COc3ccc(-c4cc(F)c(F)cc4F)cc3)c2[nH]n1CCO | 3590

Now for another entry.
Request: I'd like to know its AUC. The compound in question is Cn1[nH]c2c(COc3ccc(-c4cc(F)c(F)cc4F)cc3)cccc2c1=O
Result: 746
